Target: mTORC1 (Homo sapiens, UniProt P42345)
Assay: Inhibition of mTORC1 in human A2058 cells assessed as reduction in ribosomal protein S6 phosphorylation at Ser235/236 residues incubated for 1 hr by Western blot analysis
pIC50: −log10 of the molar value.
Output satisfied for pIC50 not less than 6; output not satisfied otherwise.

Examples from the recorded data:
> print(dat)
                                   molecule  assigned.label
1  C[C@H]1COCCN1c1nc(-c2ccc(N)nc2)nc2c1C[C@H]1COCCN21       satisfied
2  Nc1ccc(-c2nc(N3C4CCC3COC4)c3c(n2)N2CCOC[C@H]2C3)cn1       satisfied
3  Nc1cc(C(F)(F)F)c(-c2nc(N3CCOCC3)c3c(n2)N2CCOC[C@H]2C3)cn1       satisfied
4  Nc1ccc(-c2nc(N3CC4CCC(C3)O4)c3c(n2)N2CCOC[C@@H]2C3)cn1       satisfied
5  Nc1ccc(-c2nc(N3CCOCC3)nc3c2C[C@@H]2COCCN32)cn1   not satisfied

Is the recorded value of pIC50 equal to or greater than 6 for this molecule? COC(OC)c1nc(N)ncc1-c1nc2c(c(N3CCOC[C@H]3C)n1)C[C@@H]1COCCN21
satisfied

* * *

Molecular target: mTORC1 (Homo sapiens, UniProt P42345)
Test: Inhibition of mTORC1 in human A2058 cells assessed as reduction in ribosomal protein S6 phosphorylation at Ser235/236 residues incubated for 1 hr by Western blot analysis
pIC50: −log10 of the molar value.
Output T for pIC50 not less than 6; output F otherwise.

> print(dat)
                                   molecule  assigned.label
1  Cc1cc(-c2nc3c(c(N4CCOC[C@H]4C)n2)C[C@@H]2COCCN32)cnc1N               T

Is the recorded value of pIC50 equal to or greater than 6 for this compound? COC(OC)c1cc(N)ncc1-c1nc2c(c(N3CCOC[C@H]3C)n1)C[C@@H]1COCCN21
F

Is the recorded value of pIC50 equal to or greater than 6 for this compound? Nc1cc(C(F)(F)F)c(-c2nc(N3CCCCC3)c3c(n2)N2CCOC[C@H]2C3)cn1
F

Is the recorded value of pIC50 equal to or greater than 6 for this compound? Nc1ccc(-c2nc(N3CCOCC3)c3c(n2)N2CCOC[C@@H]2C3)cn1
T

Is the recorded value of pIC50 equal to or greater than 6 for this compound? Nc1ccc(-c2nc(N3CCOCC3)nc3c2C[C@H]2COCCN32)cn1
F

Is the recorded value of pIC50 equal to or greater than 6 for this compound? C[C@@H]1COCCN1c1nc(-c2cnc(N)cn2)nc2c1C[C@@H]1COCCN21
T

Is the recorded value of pIC50 equal to or greater than 6 for this compound? C[C@H]1COCCN1c1nc(-c2ccc(N)nc2)nc2c1C[C@@H]1COCCN21
T

Is the recorded value of pIC50 equal to or greater than 6 for this compound? COc1cc(N)ncc1-c1nc2c(c(N3CCOC[C@H]3C)n1)C[C@@H]1COCCN21
F

* * *

Target: mTORC1 (Homo sapiens)
Test: Inhibition of mTORC1 in human A2058 cells assessed as reduction in ribosomal protein S6 phosphorylation at Ser235/236 residues incubated for 1 hr by Western blot analysis
Recorded pIC50 values for a group of compounds are listed next.
Value format note: pIC50 is -log10 of concentration (mol/L); just state the number.

Here are 2 compounds together with their reported answers.
> print(dat)
                                   molecule  obs.value
1  Cc1cc(N)ncc1-c1nc2c(c(N3CCOC[C@H]3C)n1)C[C@@H]1COCCN21       6.08
2  Nc1cc(C(F)(F)F)c(-c2nc(N3CCOCC3)c3c(n2)N2CCCC[C@H]2C3)cn1       6.03

Next compound, please.
Name the recorded pIC50 for CC1(C)COCCN1c1nc(-c2ccc(N)nc2)nc2c1C[C@H]1COCCN21 .
6.00
